Each recorded value in this set is attributed to ChEMBL document CHEMBL1201862.

System: SK-MEL-28
Method Summary: NCI tumour cell line growth inhibition, 48 h
Activity calls are given as the source filed them. Cut-off read from the data, not from the text of the source: active = GI50 up to about 1.1 µM and inactive = higher.
Possible outcomes: active, inactive

| Compound | Answer Label |
| --- | --- |
| COc1ccc(/N=C/c2ccc(N(CCC#N)S(=O)(=O)c3ccccc3)cc2)cc1 | inactive |
| C/C(=N/NC(=O)c1ccncc1)c1ccc(NC(=O)C(=O)Nn2c(S)nc3ccccc3c2=O)cc1 | inactive |
| CC1C(NNc2ccccc2)Oc2cc3c(cc2C1c1ccccc1O)OCO3 (configuration not stated) | inactive |
| COc1ccc(NC(=S)N/N=C(\C)c2nc3cccnc3[nH]2)cc1 | inactive |
| Fc1c(F)c(F)c(CSc2nc3ccccc3[nH]2)c(F)c1F | inactive |
| O=C(Cc1ccccc1)NN1C(=O)C(Cl)C1c1cc(Br)ccc1O (configuration not stated) | inactive |
| Cc1c(-c2ccccc2)n(C)c2cn[nH]c(=O)c12 | inactive |
| COc1ccc(CCc2cc(OC)cc(OC)c2)cc1 | inactive |
| COc1ccccc1C(O)[C@@H]1C[C@@H]2[C@H]3CC[C@@](C)([C@@H]2O1)C3(C)C (some centres not stated) | inactive |
| NCCC(N)C(=O)O (configuration not stated) | inactive |
| COc1cc(/C=N/n2c(-c3ccccc3)nn(C(C)=O)c2=O)cc(OC)c1OC | inactive |
| CC1=NN(C(=O)CC(=O)NC(=O)CC(=O)Nc2ccccc2F)C(=O)C1/N=N/c1ccc([N+](=O)[O-])cc1 (configuration not stated) | inactive |
| CC(C)(C)OC(=O)NCCNC(=O)CN(CC(=O)O)C1CCCCC1N(CC(=O)O)CC(=O)O (configuration not stated) | inactive |
| CC(C)(C)c1ccc(-c2nc3ccc(Cl)cc3c(=O)o2)cc1 | inactive |
| O=C1OC(c2ccc(Cl)cc2)(c2ccc(Cl)cc2)c2c1ccc1ccccc21 | inactive |
| C/C=C/C(=O)N1C(=O)OC[C@@H]1c1ccccc1 | inactive |
| O=C(O)CCCSC(=O)Nc1ccc(/N=N/c2ccccc2)cc1 | inactive |
| COc1ccc(OC)c(N2C(=O)/C(=C\c3ccccc3)SC2c2cc(OC)c(OC)c(OC)c2)c1 (configuration not stated) | inactive |
| CCOC1=C2C(C)(CCC3[C@@]4(C)C=CC(=O)C(C)(C)C4CC(O)[C@@]23C)C(c2ccoc2)C1=O (some centres not stated) | inactive |
| COc1ccc(C(=O)C#Cc2cnc(O)nc2O)cc1 | inactive |
| CCOC1=C2N=C(Cc3ccc(F)cc3)NC2C(=O)c2ccccc21 (configuration not stated) | inactive |
| CCOC(=O)C(NC(=O)CC)(Nc1ccc(F)cc1F)C(F)(F)F (configuration not stated) | inactive |
| C[C@]12CC[C@H](OC(=O)Cc3ccc(N(CCCl)CCCl)cc3)CC1CC[C@@H]1C2CC[C@]2(C)NC(=O)CCC12 (some centres not stated) | inactive |
| Cc1ccc(C)c(N2C(=O)C(=O)C(c3nc4ccccc4s3)/C(=N/NC(=O)NN)C2=O)c1 (configuration not stated) | inactive |
| C=CCN1C(=O)/C(=C/c2ccccc2)N=C1SC/C=C/C | inactive |
| CN(C)/C=C/c1ccncc1 | inactive |
| C=C(Br)C[N+]12CN3CN(CN(C3)C1)C2 | inactive |
| O=C(/C=C/c1ccccc1Cl)c1cccc2ccccc12 | inactive |
| O=C1OCCC[C@H]2O[C@@H](COCc3ccccc3)C[C@@H]12 | inactive |
| CC1=NC(C(=O)O)Cc2c1[nH]c1ccccc21 (configuration not stated) | inactive |
| CCCCCCCSCC1C(=O)C23C(O)C1CCC2C12COC3(O)C(O)C1C(C)(C)CCC2O (configuration not stated) | inactive |
| COc1cc2c(cc1OC)C(Cl)C(c1cc(OC)c(OC)c(OC)c1)=C2Cl (configuration not stated) | inactive |
| COC(=O)C1CCC(=O)N1CN(C(C)=O)c1cc(OC)ccc1OC (configuration not stated) | inactive |
| CN(C)CCC(=O)/C=C\c1ccccc1 | inactive |
| CC[C@H](C)[C@H]1NC(=O)[C@@H](NC(=O)[C@@H](CC(C)C)N(C)CC2CCCN2C(=O)C(C)=O)[C@@H](C)OC(=O)[C@H](Cc2ccc(OC)cc2)N(C)C(=O)C2CCCN2C(=O)[C@H](CC(C)C)NC(=O)[C@@H](C)C(=O)[C@H](C(C)C)OC(=O)C[C@@H]1O (some centres not stated) | active |
| COc1ccc([C@@H]2CC(=O)NCCCCNCCCN2)cc1 | inactive |
| COC(=O)c1cccc(C(=O)OC)c1 | inactive |
| O=C(/C=C\c1ccsc1)c1ccccc1 | inactive |
| OCCCN=C1CCCCC1 | inactive |
| Nc1cc2c3c(c1)Oc1cc(N)cc4c1C3c1c(cc(N)cc1O4)O2 | inactive |
| COc1ccc(C2=Nc3c(nc(OC)[nH]c3=O)NC(c3ccccc3)C2)cc1 (configuration not stated) | inactive |
| Cc1cc(/C=C/c2cc[n+](C)c3ccccc23)c(O)c2ncccc12 | inactive |
